Listed below: Affinity ELISA CPE mutant ratio (1:9, pH 6.0/7.4) values for each entry.
# tested_on: Axl (UniProt P30530)
# Sequence (P30530 26-451 limits assumed): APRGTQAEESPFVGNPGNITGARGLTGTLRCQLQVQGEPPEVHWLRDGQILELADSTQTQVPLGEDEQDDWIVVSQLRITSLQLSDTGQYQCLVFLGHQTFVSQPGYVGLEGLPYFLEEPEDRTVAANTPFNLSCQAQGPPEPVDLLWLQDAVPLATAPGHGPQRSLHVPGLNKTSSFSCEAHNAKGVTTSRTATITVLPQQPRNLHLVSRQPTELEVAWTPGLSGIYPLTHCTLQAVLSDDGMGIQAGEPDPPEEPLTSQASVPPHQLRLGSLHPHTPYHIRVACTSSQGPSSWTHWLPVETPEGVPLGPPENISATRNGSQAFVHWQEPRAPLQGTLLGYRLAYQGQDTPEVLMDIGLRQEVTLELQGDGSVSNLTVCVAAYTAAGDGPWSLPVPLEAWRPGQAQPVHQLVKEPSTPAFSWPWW
# test_protocol: ELISA, 1:9 dilution
Output: the number by itself.

>  <binder>
LC-F092E (antibody, V domains shown) VH: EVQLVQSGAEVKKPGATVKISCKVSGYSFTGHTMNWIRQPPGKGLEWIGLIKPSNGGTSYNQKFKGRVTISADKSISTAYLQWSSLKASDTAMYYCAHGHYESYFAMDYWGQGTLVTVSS VL: DIQMTQSPSSLSASVGDRVTITCKASQDVSSAVAWYQQKPGQAPRLLIYWASTRHTGVPSRFSGSGSGTEFTLTISSLQPDDFATYYCQEHESTPLTFGQGTKVEIK

>  <recorded_measurement>
2

$$$$
>  <binder>
LC-V029W (antibody, V domains shown) VH: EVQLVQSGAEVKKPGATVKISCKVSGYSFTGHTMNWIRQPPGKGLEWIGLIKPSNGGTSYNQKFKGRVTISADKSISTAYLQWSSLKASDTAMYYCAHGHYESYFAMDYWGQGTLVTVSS VL: DIQMTQSPSSLSASVGDRVTITCKASQDWSSAVAWYQQKPGQAPRLLIYWASTRHTGVPSRFSGSGSGTEFTLTISSLQPDDFATYYCQEHFSTPLTFGQGTKVEIK

>  <recorded_measurement>
2.35

$$$$
>  <binder>
HC-W110N (antibody, V domains shown) VH: EVQLVQSGAEVKKPGATVKISCKVSGYSFTGHTMNWIRQPPGKGLEWIGLIKPSNGGTSYNQKFKGRVTISADKSISTAYLQWSSLKASDTAMYYCAHGHYESYFAMDYNGQGTLVTVSS VL: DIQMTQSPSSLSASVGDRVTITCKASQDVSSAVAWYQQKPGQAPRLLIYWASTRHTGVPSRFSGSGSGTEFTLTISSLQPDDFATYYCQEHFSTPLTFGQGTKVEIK

>  <recorded_measurement>
0.8

$$$$
>  <binder>
HC-G111H (antibody, V domains shown) VH: EVQLVQSGAEVKKPGATVKISCKVSGYSFTGHTMNWIRQPPGKGLEWIGLIKPSNGGTSYNQKFKGRVTISADKSISTAYLQWSSLKASDTAMYYCAHGHYESYFAMDYWHQGTLVTVSS VL: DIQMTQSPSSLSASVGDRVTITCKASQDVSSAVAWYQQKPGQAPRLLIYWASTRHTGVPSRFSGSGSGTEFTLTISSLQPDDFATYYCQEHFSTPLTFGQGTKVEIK

>  <recorded_measurement>
1.79

$$$$
>  <binder>
HC-H100E (antibody, V domains shown) VH: EVQLVQSGAEVKKPGATVKISCKVSGYSFTGHTMNWIRQPPGKGLEWIGLIKPSNGGTSYNQKFKGRVTISADKSISTAYLQWSSLKASDTAMYYCAHGEYESYFAMDYWGQGTLVTVSS VL: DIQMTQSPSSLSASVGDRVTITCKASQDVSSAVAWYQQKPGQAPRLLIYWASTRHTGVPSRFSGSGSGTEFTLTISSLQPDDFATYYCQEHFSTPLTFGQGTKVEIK

>  <recorded_measurement>
3.62

$$$$

Problem: What value of measured Affinity ELISA CPE mutant ratio (1:9, pH 6.0/7.4) is listed for HC-N035I (antibody, V domains shown) VH: EVQLVQSGAEVKKPGATVKISCKVSGYSFTGHTMIWIRQPPGKGLEWIGLIKPSNGGTSYNQKFKGRVTISADKSISTAYLQWSSLKASDTAMYYCAHGHYESYFAMDYWGQGTLVTVSS VL: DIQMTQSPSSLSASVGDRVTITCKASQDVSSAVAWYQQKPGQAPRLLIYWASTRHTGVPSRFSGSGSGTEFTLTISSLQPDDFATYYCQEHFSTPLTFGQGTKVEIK ?
Solution: 1.12

Data origin, for the record: patent US20250276075A1
